Biological target: T1, cynomolgus CCR8 (cynomolgus, UniProt G7NYJ2 1-355)
T1 construct: whole, on cells
T1 sequence (G7NYJ2 entry or part of it): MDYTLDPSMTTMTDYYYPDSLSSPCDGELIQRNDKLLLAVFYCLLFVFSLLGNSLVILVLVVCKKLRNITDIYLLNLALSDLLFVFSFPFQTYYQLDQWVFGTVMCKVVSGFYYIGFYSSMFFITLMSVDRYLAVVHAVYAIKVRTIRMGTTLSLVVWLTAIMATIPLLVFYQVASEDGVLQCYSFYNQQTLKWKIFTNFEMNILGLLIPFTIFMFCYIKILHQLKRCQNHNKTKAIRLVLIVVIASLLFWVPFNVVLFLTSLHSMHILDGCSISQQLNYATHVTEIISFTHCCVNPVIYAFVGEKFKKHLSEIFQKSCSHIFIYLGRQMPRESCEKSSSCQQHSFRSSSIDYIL
Assay: FACS on HEK293-cynomolgus CCR8 cells
VALUE_TYPE: EC50 (nM)
Field: numeric (nM). Do not append units.

>>> recorded_number("Hu149-15 (antibody, human IgG1, V domains shown, human IgG1) VH: EVQLVESGGGLVQPGGSLKLSCAASGFTFNTYAMNWVRQAPGKGLEWVGRIRSKSNFYATAYAASVKGRFTISRDDSKNTAYLQMNSLKTEDTAVYYCTRGRDYGSSYAMDYWGQGTLVTVSS VL: DIVMTQSPLSLPVTPGEPASISCRSSKSLLHSNANTYLYWFLQKPGQSPQLLIYRMSNLASGVPDRFSGSGSGTDFTLKISRVEAEDVGVYYCMQHLEYPLTFGGGTKVELK")
0.282

Next binder, EC50 to be filled in.
I am curious: what EC50 value has been reported for Hu149-21 (antibody, human IgG1, V domains shown, human IgG1) VH: EVQLVESGGGLVQPGGSLKLSCAASGFTFNTYAMNWVRQASGKGLEWVGRIRSKSNFYATAYAASVKGRFTISRDDSKNTAYLQMNSLKTEDTAVYYCTRGREYGRSYAMDYWGQGTLVTVSS VL: DIVMTQSPLSLPVTPGEPASISCRSSKSLLHSNANTYLYWFLQKPGQSPQLLIYRMSNLASGVPDRFSGSGSGTDFTLKISRVEAEDVGVYYCMQHLKYPLTFGGGTKVELK ?
0.946

Reference source: patent US20250034266A1
